# measured-on: UniProtKB P32245
# Sequence (P32245 whole entry): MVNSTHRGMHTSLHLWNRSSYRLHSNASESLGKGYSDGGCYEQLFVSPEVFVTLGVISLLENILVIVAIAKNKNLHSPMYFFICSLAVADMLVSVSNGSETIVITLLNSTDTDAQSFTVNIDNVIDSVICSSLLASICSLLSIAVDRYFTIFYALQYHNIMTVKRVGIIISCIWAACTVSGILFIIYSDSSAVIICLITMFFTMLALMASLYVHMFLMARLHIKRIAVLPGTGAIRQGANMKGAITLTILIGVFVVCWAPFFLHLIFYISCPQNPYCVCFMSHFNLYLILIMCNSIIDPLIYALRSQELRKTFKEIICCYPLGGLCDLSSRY
# method: High and low density hMC4-R functional assay (cAMP, HEK293-T-REx-MC4-R cells)
# Type: cell-based
# measurement-parameters: 10 ng/mL Doxycycline (high density hMC4-R system)
Label True when EC50 is strictly below 0.2 nM; otherwise label False.

Please review the entries below; each comes with its answer.
mol-smiles	measured-on	label
CC(=O)N[C@@H](CCCNC(=N)N)C(=O)N[C@H]1CCC(=O)NCCC[C@@H](C(N)=O)NC(=O)[C@H](Cc2c[nH]c3ccccc23)NC(=O)[C@H](CCCNC(=N)N)NC(=O)[C@@H](Cc2cccc(Cl)c2)NC(=O)[C@H](CN)NC1=O	UniProtKB P32245	False
CC(=O)N[C@@H](CCCNC(=N)N)C(=O)N[C@H]1CCCNC(=O)CC[C@@H](C(N)=O)NC(=O)[C@H](Cc2c[nH]c3ccccc23)NC(=O)[C@H](CCCNC(=N)N)NC(=O)[C@@H](Cc2ccc(F)c(F)c2)NC(=O)[C@H](CC(N)=O)NC1=O	UniProtKB P32245	True

is_below(EC50, 0.2 nM) for `CC(=O)N[C@@H](CCCNC(=N)N)C(=O)N[C@H]1CCCNC(=O)CC[C@@H](C(N)=O)NC(=O)[C@H](Cc2c[nH]c3ccccc23)NC(=O)[C@H](CCCNC(=N)N)NC(=O)[C@@H](Cc2cc(F)c(F)c(F)c2)NC(=O)[C@H](CC(N)=O)NC1=O` ?
False

Determine whether this compound shows EC50 lower than 0.2 nM (ties excluded): `CC(=O)N[C@@H](CCCNC(=N)N)C(=O)N[C@H]1CCC(=O)NCCC[C@@H](C(=O)O)NC(=O)[C@H](Cc2c[nH]c3ccccc23)NC(=O)[C@H](CCCNC(=N)N)NC(=O)[C@@H](Cc2cccc(Cl)c2)NC(=O)[C@H](CCCN)NC1=O`
False

Hi there! Is EC50 for `CC(=O)N[C@@H](CCCNC(=N)N)C(=O)N[C@H]1CCC(=O)NCCC[C@@H](C(N)=O)NC(=O)[C@H](Cc2c[nH]c3ccccc23)NC(=O)[C@H](CCCNC(=N)N)NC(=O)[C@@H](Cc2ccccc2F)NC(=O)[C@@H]2C[C@@H](O)CN2C1=O` below 0.2 nM, do you know?
True

Please indicate whether the reported EC50 of `CC(=O)N[C@@H](CCCNC(=N)N)C(=O)N[C@H]1CCC(=O)NCCC[C@@H](C(N)=O)NC(=O)[C@H](Cc2c[nH]c3ccccc23)NC(=O)[C@H](CCCNC(=N)N)NC(=O)[C@@H](Cc2ccc(Cl)c(Cl)c2)NC(=O)[C@H](CCN)NC1=O` is strictly below 0.2 nM.
False

Given `CC(=O)N[C@@H](CCCNC(=N)N)C(=O)N[C@H]1CCC(=O)NCCC[C@@H](C(N)=O)NC(=O)[C@H](Cc2c[nH]c3ccccc23)NC(=O)[C@H](CCCNC(=N)N)NC(=O)[C@@H](Cc2cccc(C)c2)NC(=O)[C@H](CCN)NC1=O` , is recorded EC50 strictly lower than 0.2 nM?
False

Strictly below 0.2 nM: is that where EC50 of `CC(=O)N[C@@H](CCCNC(=N)N)C(=O)N[C@H]1CCCNC(=O)CC[C@@H](C(N)=O)NC(=O)[C@H](Cc2c[nH]c3ccccc23)NC(=O)[C@H](CCCNC(=N)N)NC(=O)[C@@H](Cc2ccccc2F)NC(=O)[C@H](CC(N)=O)NC1=O` sits?
True

Data provenance: patent US9040663B2
